Data credit: paper PMC11480844

B1: H2-Kb / B2 (parent)
chain 1: GEQVEQRPPHLSVREGDSAVIICTYTDPNSYYFFWYKQEPGAGLQLLMKVFSSTEINEGQGFTVLLNKKDKQLSLNLTAAHPGDSAVYFCAVSQMSNYNVLYFGSGTKLTVEP
chain 2: EAAVTQSPRNKVAVTGGKVTLSCNQTNNHNNMYWYRQDTGHGLRLIHYSYGAGSTEKGDIPDGYKASRPSQENFSLILELATPSQTSVYFCASGTGGSGQLYFGEGSKLTVL
chain 3: not shown
chain 4: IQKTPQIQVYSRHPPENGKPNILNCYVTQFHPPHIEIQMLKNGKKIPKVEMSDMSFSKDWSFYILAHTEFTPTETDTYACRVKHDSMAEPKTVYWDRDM
chain 5: SIINFEKL

- Variants of: B1
- test: % of reporter cells activated (NFAT-GFP), raw; note: test concentration or dose not given here
- measurement setup: with B2; scale: % of reporter cells activated
measured endpoint: ratio to parent

[[record]]
changes = "chain 5 F5N"
test_result = 1.95

[[record]]
changes = "chain 5 L8F"
test_result = 8.42

[[record]]
changes = "chain 5 L8V"
test_result = 0.211

[[record]]
changes = "chain 5 F5A"
test_result = 1.27


P = chain 5 N4K
Q = chain 5 S1V
Record comparison, field ratio to parent: mark the lower of P and Q . Which one? Tell me its label.
P
